System: RPMI-8226 leukemia
Method notes: NCI-60 one-dose screen, 48 h
Assay setup: 10 µM unless noted
This is part of a sample that, as a whole, favours compounds with a hit. Of some 83,000 tested, about 20% had one in any assay. Activity calls are given as the source filed them. Rule for the calls: active = growth percent below 10; inactive = the rest.
Response enum: active, inactive

Field: example entries. Status: answers known.
Brc1ccccc1/C=N/Nc1nc(N/N=C/c2ccccc2Br)nc(N2CCOCC2)n1 : inactive
COc1cc(OC)c(S(N)(=O)=O)cc1C(=O)/C=C/c1ccc(Cl)cc1 : active
CC1(C)CC[C@]2(C(=O)O)CC[C@]3(C)C(=CC[C@@H]4[C@@]5(C)CC/C(=N\OCCC#N)C(C)(C)[C@@H]5CC[C@]43C)[C@@H]2C1 : inactive
C[C@@H]1C[C@H]2C(=O)O[C@@H](C)C(NC(=O)[C@H](Cc3cc(F)cc(F)c3)NC(=O)Nc3ccc(C4CC4)cc3F)C(=O)N3CCC[C@H]3C(=O)N3CCCC[C@H]3C(=O)N[C@@H](CO)C(=O)N2C1 (stereo partly drawn) : inactive
COc1cc(-c2nn(C(C)(C)C)cc2-c2ccnc(NCCCNS(=O)(=O)c3cccc(F)c3)n2)ccc1Cl : inactive
NC(N)=Nc1ccc(Oc2cccc(Nc3ccc(Cl)c(C(F)(F)F)c3)c2)cn1 : active

Req: Query: recorded result category for N#Cc1cccc(CN2CCC3=C(C2)C(=O)N(Cc2ccc(Cl)cc2)C2=NCCCN23)c1 in this test
Resp: inactive

Req: Query: recorded result category for N#Cc1ccccc1Cn1c2nc(=N)c3ccccc3c-2nc2ccccc21 in this test
Resp: inactive
